Biological target: T1, Mad1^CTD R630A (human, UniProt Q9Y6D9 597-718, R630A)
T1 construct: also called Mad1 R630A mutant; source: E. coli Rosetta 2 (DE3), purified (Strep-Tactin, TEV cleavage, Resource Q, Superdex 75); not shown: double Strep, N-terminal, cleaved; His6, N-terminal, cleaved
T1 sequence (looked up): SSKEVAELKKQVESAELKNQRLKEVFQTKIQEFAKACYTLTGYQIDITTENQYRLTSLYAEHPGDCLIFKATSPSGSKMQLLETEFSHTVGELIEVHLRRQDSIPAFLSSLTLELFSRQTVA
Assay: ITC; Bub1^CD1 peptide (0.3-1.5 mM) titrated into Mad1 (30-100 µM) in the cell; 20°C; 20 mM HEPES pH 7.5, 100 mM NaCl, 1 mM TCEP; single-site model; stoichiometry counted on dimeric Mad1^CTD
Settings: both partners purified
Where no end group is shown, it is not given here. [ ]: non-standard residue; d: D form. pT = C[C@@H](OP(=O)(O)O)[C@H](N)C(=O)O; pS = N[C@@H](COP(=O)(O)O)C(=O)O
REPORTED_METRIC: Kd
Give the number first and the unit second.

Task: Bench note: what Kd did KVQP[pS]P[pT]VHTKEALGFIMNMFQAPTS (Bub1 conserved domain 1 (CD1), human, stated as residues 455-479; also called pSer459-pThr461 peptide; source: synthetic peptide (Designer Bioscience UK, 95% purity)) [doubly phosphorylated Bub1^CD1 peptide (pSer459-pThr461)] show?
Result: 10 µM
